System: HCV genotype 1b subgenomic Huh 5-2 replicon system
Test description: Antiviral effect on HCV 1b subgenomic replicon replication in Huh 5-2 cells
Assay type: cell-based, Hepatitis C virus
Assay setup: Hepatitis C virus, Huh-5-2
# reported EC50; entries follow
Write the number in µM without appending the unit.

The following compounds have reported results that may help.
# Compound, Assay endpoint, Recorded result
records = [
    ("O=c1oc2ccc(Cl)cc2cc1CSc1nccn1[C@@H]1O[C@H](CO)[C@@H](O)[C@H]1O", "EC50", 14),
    ("O=c1oc2ccccc2cc1CSc1nc2c(=O)[nH]cnc2n1[C@@H]1O[C@H](CO)[C@@H](O)[C@H]1O [Compound 9a, 8-[(Coumarin-3′-yl)methylthio]inosine]", "EC50", 61),
]

Now for the compound whose EC50 we want.
Task item: Quick one: EC50 of `COc1cccc2cc(CSc3ncc[nH]3)c(=O)oc12` ?
Reply: 8.4
